Reference source: PubChem BioAssay AID2060496

# System: 276233-004-R-J1-PDC complex spheroid viability;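 further: spheroids exposed to drugs for seven days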
# testProtocol: Anticancer human tumor 276233-004-R-J1-PDC patient-derived colon adenocarcinoma cell line growth inhibition [GQUAD]
# measurementConditions: second compound 0.316 µM; first compound 10 µM; stronger effect = lower value
Class (by viability, T/C) -- lower segment (below 40%), middle segment (40% to below 70%), upper segment (70% or more)

{"columns": ["molecule", "classAssignment"],
 "data": [
  ["COc1ncnc(C2CC2)c1-c1ncc2cnn(Cc3ccc(-c4nc(C(F)(F)F)cn4C(C)C)cc3)c2n1 + CN(C)c1ccc(Nc2c3ccc(NC(=O)CCN4CCCC4)cc3nc3cc(NC(=O)CCN4CCCC4)ccc23)cc1", "upper segment"]
]}

Now look at this entry.
Which of the defined bands does the recorded viability, T/C of CC(C)n1c(=O)n(C)c2cnc3cc(F)c(-c4ccc(OCCCN5CCCCC5)nc4)cc3c21 + Cc1cnc(CNC(=O)c2c(=O)c3ccc(N4CCCN(C)CC4)nc3n3c2sc2ccccc23)cn1 sit within?
upper segment
